Target: SARS-CoV spike on rVSV-deltaG-Luc pseudovirus (SARS-CoV, UniProt P59594 14-1236)
Test: cell-based or functional assay
Listing of recorded pseudovirus neutralization IC50 by entry.
Respond numerically; units are nM and should not be typed.

Some solved cases for reference:
19E10 VHH-Fc (Fc fusion) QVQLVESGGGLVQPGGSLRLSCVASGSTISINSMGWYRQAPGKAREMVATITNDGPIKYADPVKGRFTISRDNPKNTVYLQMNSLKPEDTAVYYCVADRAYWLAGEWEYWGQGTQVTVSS; 0.12
5A6 VHH-Fc (Fc fusion) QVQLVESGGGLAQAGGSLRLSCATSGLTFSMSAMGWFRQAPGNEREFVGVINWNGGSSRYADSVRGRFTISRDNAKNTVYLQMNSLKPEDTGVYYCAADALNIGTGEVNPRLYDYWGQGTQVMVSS; 6.3
9B2 VHH-Fc (Fc fusion) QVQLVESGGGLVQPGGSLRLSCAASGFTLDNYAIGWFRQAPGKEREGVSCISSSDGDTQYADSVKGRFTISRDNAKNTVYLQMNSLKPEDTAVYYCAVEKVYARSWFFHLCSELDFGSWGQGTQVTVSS; 0.19
1E4 VHH-Fc (Fc fusion) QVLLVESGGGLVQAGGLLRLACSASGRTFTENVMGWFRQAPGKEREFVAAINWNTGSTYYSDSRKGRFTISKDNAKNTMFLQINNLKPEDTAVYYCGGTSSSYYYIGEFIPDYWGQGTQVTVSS; 0.06

According to the records, this binder 15H7 VHH-Fc (Fc fusion) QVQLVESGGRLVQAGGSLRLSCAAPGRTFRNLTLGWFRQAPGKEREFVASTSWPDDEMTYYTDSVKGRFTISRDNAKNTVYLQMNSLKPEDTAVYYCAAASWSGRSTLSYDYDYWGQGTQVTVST displays pseudovirus neutralization IC50 of 1.71

FYI, the data here is from patent US20250382355A1.
